Origin of measurements: patent US20210388087A1

molecular target: T1, CD3 epsilon homodimer protein (UniProt P07766 23-126); experiment: SPR Biacore T200, CD3e homodimer on chip, vs unaltered GLS3000 antibody
T1 construct: also called CD3 (CD3 epsilon)
T1 sequence (P07766 23-126): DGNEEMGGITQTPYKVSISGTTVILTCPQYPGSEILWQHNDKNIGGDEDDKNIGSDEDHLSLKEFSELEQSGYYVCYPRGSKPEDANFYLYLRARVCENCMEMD
Assign ratio of amounts bound (Z=Y/X) to each entry below.

Worked cases, ratio of amounts bound (Z=Y/X) given:
- binder: "GLS3000 Y32F (antibody, name in Kabat numbering, V domains shown, one-arm IgG as m2) VH: QVQLVESGGGVVQPGRSLRLSCAASGFTFSNAWMHWVRQAPGKGLEWVAQIKAKSNNYATYYAESVKGRFTISRDDSKNSLYLQMNSLKTEDTAVYYCRYVHYGAYYGVDAWGQGTTVTVSS VL: DIVMTQSPLSLPVTPGEPASISCRSSQSLVHSNRNTFLHWYQQKPGQAPRLLIYKVSNRFSGVPDRFSGSGSGTDFTLKISRVEAEDVGVYYCGQGTQVPYTFGQGTKLEIK"
  ratio of amounts bound (Z=Y/X): 0.29
- binder: "GLS3000 G89P (antibody, name in Kabat numbering, V domains shown, one-arm IgG as m2) VH: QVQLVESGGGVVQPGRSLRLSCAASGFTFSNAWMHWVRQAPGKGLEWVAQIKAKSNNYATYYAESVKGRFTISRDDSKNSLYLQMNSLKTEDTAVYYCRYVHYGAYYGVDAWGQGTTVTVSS VL: DIVMTQSPLSLPVTPGEPASISCRSSQSLVHSNRNTYLHWYQQKPGQAPRLLIYKVSNRFSGVPDRFSGSGSGTDFTLKISRVEAEDVGVYYCPQGTQVPYTFGQGTKLEIK"
  ratio of amounts bound (Z=Y/X): 0.35
- binder: "GLS3000 F55N (antibody, name in Kabat numbering, V domains shown, one-arm IgG as m2) VH: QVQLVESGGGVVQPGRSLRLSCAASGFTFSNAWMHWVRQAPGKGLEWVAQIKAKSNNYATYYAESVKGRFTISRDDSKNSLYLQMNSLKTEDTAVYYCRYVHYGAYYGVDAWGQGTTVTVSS VL: DIVMTQSPLSLPVTPGEPASISCRSSQSLVHSNRNTYLHWYQQKPGQAPRLLIYKVSNRNSGVPDRFSGSGSGTDFTLKISRVEAEDVGVYYCGQGTQVPYTFGQGTKLEIK"
  ratio of amounts bound (Z=Y/X): 0.98
- binder: "GLS3000 H27dA (antibody, name in Kabat numbering, V domains shown, one-arm IgG as m2) VH: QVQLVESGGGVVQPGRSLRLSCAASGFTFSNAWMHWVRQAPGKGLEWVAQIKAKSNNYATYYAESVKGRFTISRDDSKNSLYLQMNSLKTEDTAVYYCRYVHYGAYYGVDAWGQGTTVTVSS VL: DIVMTQSPLSLPVTPGEPASISCRSSQSLVASNRNTYLHWYQQKPGQAPRLLIYKVSNRFSGVPDRFSGSGSGTDFTLKISRVEAEDVGVYYCGQGTQVPYTFGQGTKLEIK"
  ratio of amounts bound (Z=Y/X): 0.48
- binder: "GLS3000 R24G (antibody, name in Kabat numbering, V domains shown, one-arm IgG as m2) VH: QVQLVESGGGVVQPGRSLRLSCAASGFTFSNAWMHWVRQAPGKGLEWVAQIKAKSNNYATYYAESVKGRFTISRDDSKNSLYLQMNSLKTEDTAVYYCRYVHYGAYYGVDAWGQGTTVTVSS VL: DIVMTQSPLSLPVTPGEPASISCGSSQSLVHSNRNTYLHWYQQKPGQAPRLLIYKVSNRFSGVPDRFSGSGSGTDFTLKISRVEAEDVGVYYCGQGTQVPYTFGQGTKLEIK"
  ratio of amounts bound (Z=Y/X): 0.89
- binder: "GLS3000 S27eF (antibody, name in Kabat numbering, V domains shown, one-arm IgG as m2) VH: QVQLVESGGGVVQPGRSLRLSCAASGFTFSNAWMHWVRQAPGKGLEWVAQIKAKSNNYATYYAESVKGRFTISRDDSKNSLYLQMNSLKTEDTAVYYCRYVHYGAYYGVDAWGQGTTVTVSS VL: DIVMTQSPLSLPVTPGEPASISCRSSQSLVHFNRNTYLHWYQQKPGQAPRLLIYKVSNRFSGVPDRFSGSGSGTDFTLKISRVEAEDVGVYYCGQGTQVPYTFGQGTKLEIK"
  ratio of amounts bound (Z=Y/X): 1.32
- binder: "GLS3000 G91P (antibody, name in Kabat numbering, V domains shown, one-arm IgG as m2) VH: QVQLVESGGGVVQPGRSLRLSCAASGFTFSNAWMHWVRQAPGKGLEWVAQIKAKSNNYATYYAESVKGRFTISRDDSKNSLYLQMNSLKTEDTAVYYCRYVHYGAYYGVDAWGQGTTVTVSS VL: DIVMTQSPLSLPVTPGEPASISCRSSQSLVHSNRNTYLHWYQQKPGQAPRLLIYKVSNRFSGVPDRFSGSGSGTDFTLKISRVEAEDVGVYYCGQPTQVPYTFGQGTKLEIK"
  ratio of amounts bound (Z=Y/X): 0.27
- binder: "GLS3000 F55V (antibody, name in Kabat numbering, V domains shown, one-arm IgG as m2) VH: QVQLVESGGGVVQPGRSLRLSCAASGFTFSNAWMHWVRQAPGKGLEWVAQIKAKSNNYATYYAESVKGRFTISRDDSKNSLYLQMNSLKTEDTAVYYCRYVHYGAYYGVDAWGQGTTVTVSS VL: DIVMTQSPLSLPVTPGEPASISCRSSQSLVHSNRNTYLHWYQQKPGQAPRLLIYKVSNRVSGVPDRFSGSGSGTDFTLKISRVEAEDVGVYYCGQGTQVPYTFGQGTKLEIK"
  ratio of amounts bound (Z=Y/X): 0.71

List ratio of amounts bound (Z=Y/X) for every entry below, keeping the order given.
1. GLS3000 R54P (antibody, name in Kabat numbering, V domains shown, one-arm IgG as m2) VH: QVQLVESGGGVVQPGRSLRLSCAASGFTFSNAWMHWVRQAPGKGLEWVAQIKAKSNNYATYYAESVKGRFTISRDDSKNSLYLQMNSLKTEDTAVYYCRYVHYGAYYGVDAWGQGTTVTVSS VL: DIVMTQSPLSLPVTPGEPASISCRSSQSLVHSNRNTYLHWYQQKPGQAPRLLIYKVSNPFSGVPDRFSGSGSGTDFTLKISRVEAEDVGVYYCGQGTQVPYTFGQGTKLEIK
2. GLS3000 H27dN (antibody, name in Kabat numbering, V domains shown, one-arm IgG as m2) VH: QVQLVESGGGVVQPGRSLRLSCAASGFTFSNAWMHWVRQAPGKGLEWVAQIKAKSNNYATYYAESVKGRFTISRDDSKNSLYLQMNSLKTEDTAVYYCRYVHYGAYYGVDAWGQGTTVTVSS VL: DIVMTQSPLSLPVTPGEPASISCRSSQSLVNSNRNTYLHWYQQKPGQAPRLLIYKVSNRFSGVPDRFSGSGSGTDFTLKISRVEAEDVGVYYCGQGTQVPYTFGQGTKLEIK

Reply:
1. 0.84
2. 0.3
